# System: U251 CNS
# run.description: NCI tumour cell line growth inhibition, 48 h
experimental.endpoint: TGI (µM)
Hi! Could you send only the number? It should be in µM, unit omitted.

Data request: Can you share its TGI? I mean this compound: C/C=C(\C)C(O)C(C)C(O)C/C=C(C)/C=C(\C)C/C(C)=C/C/C=C(\C)C(O)C(C)c1ccc(CCC)c(=O)o1 (stereo unspecified)
Data returned: 24.1

Data request: Moving on to "CCCCCCCCCCCCCCCCCCNC(=S)/N=C\C1=C(O)c2ccccc2C1=O"
Data returned: 18.3

Data request: Same again, this time with "O=C(COc1cc(O)c2c(=O)cc(-c3ccccc3)oc2c1)Nc1ccccc1C(F)(F)F"
Data returned: 4.45

###

# Test system: MCF7 breast
# run.description: NCI tumour cell line growth inhibition, 48 h
experimental.endpoint: TGI

Data request: Any idea what TGI was measured for "O=C(NCCCO)c1cc(Cl)ccc1O" ?
Data returned: 11.9 µM

Data request: Likewise for Cc1c2c(c(O)c3c(O)cccc13)C(=O)C1(O)C(O)=C(C(=O)NCNc3ccc(C(N)=O)cn3)C(=O)C(N(C)C)C1C2 (centres undefined) ?
Data returned: > 100 µM

Data request: Lookup "CC(C)=CCC/C(C)=C/CC/C(C)=C/CC/C(C)=C/CC/C(C)=C/CC/C(C)=C/CC/C(C)=C/CC/C(C)=C/CC/C(C)=C/CO"
Data returned: > 100 µM

Data request: Consider next the compound CC1=C(c2ccccc2)NC(=S)C(C)C(c2ccccc2)=N1 (centres undefined) in the same way.
Data returned: > 100 µM

Data request: Same again, this time with Cn1c(=O)c2c(nc3n2CCCC(=O)N3CC(O)CCl)n(C)c1=O (centres undefined)
Data returned: > 100 µM

Data request: And the next one, "O=C(O)C1(C(=O)O)CCC1.[NH2-].[NH2-].[Pt+2]" ?
Data returned: > 250 µM

Data request: And what about the compound C/C=C(\C)C(O)C(C)C(O)C/C=C(C)/C=C(\C)C/C(C)=C/C/C=C(\C)C(O)C(C)c1ccc(CCC)c(=O)o1 (centres undefined) ?
Data returned: 22.9 µM

Data request: And the next one, "Nc1c(C(=O)Nc2cccc(F)c2)sc2nc3c(cc12)C(=O)CCC3" ?
Data returned: > 100 µM

Data request: Also "Cc1nnc(-c2cccc(-c3ccc(C(=O)NCC4CC4)cc3)c2)o1" , if possible.
Data returned: > 25 µM

###

# Tested on: 786-0 renal
# run.description: NCI tumour cell line growth inhibition, 48 h; in the data active = GI50 below about 0.43 µM; inactive = the rest
Bench note: report the call from active, inactive

Data request: Please state the recorded outcome for this compound: "CC(C)([NH-])CO.CC(C)([NH-])CO.[Cl][Cd][Cl]"
Data returned: inactive

Data request: Item: COc1cccc(NC(=O)c2sc3nc(C)c(C(O)c4ccccc4)cc3c2N)c1 (centres undefined)
Data returned: inactive

Data request: Quick one: "CNC(=O)c1ccccc1Nc1nc(Nc2cc(OC)c(OC)c(OC)c2)ncc1Br"
Data returned: active

Data request: Please do the same for "O=c1cc(-c2cccc3c2Sc2ccccc2S3)oc(N2CCOCC2)c1" as well.
Data returned: inactive

Data request: And the next one, "Oc1ccc(-c2nc3ccccc3s2)cc1CN(Cc1ccccn1)Cc1ccccn1" ?
Data returned: active

Data request: Input CCN(CC)CC(O)CNc1c2ccc([N+](=O)[O-])cc2nc2cc(OC)c(OC)cc12 (centres undefined)
Data returned: inactive

Data request: Next compound: CCN(CC)c1ccc(C(O)C2=CC(=O)c3ccccc3C2=O)cc1 (centres undefined)
Data returned: inactive

Data request: Entry to check: "CC(C)(C)c1cc(-n2c(-c3ccc(Cl)cc3)nc3cc(C(=O)Nc4ccc(Cl)cc4)ccc32)n[nH]1"
Data returned: inactive

Data request: Here is the next compound: "O=C(Cc1ccc(F)c(F)c1)Nc1cc(C2(C(F)(F)F)CC2)nn1Cc1ccccc1"
Data returned: inactive

Data request: Item: "Cc1nnc(-c2cccc(-c3ccc(C(=O)NCC4CC4)cc3)c2)o1"
Data returned: inactive

Data request: Check C=C1CCC2C3(C)COC(c4ccccc4)OC3CCC2(C)C1/C=C/C1=CCOC1=O (centres undefined) too.
Data returned: inactive

Data request: Another compound: "COc1cc(C(=O)N2CCN(c3ncnc4ccccc34)CC2)c(N)cc1OCc1ccccc1"
Data returned: inactive

Data request: Check "Fc1ccc2c(c1)c(-c1nc(-c3c[nH]c4ncccc34)cs1)cn2CCCCN1CCCCC1" too.
Data returned: inactive

Data request: # iterate: "COC(=O)c1cc(O)c2cc3c(cc2c1-c1cc(OC)c(OC)c(OC)c1)OCO3"
Data returned: inactive

Data request: Now try "CC(=O)C1=C(O)C=C2Oc3c(C(=O)/C=C/c4c(Cl)cccc4Cl)c(O)c(C)c(O)c3[C@]2(C)C1=O" .
Data returned: inactive

Data request: What about "COc1ccc2c(=O)cc(C(Cl)(Cl)Cl)oc2c1" ?
Data returned: active

Data request: Try this compound next: "C#CCSc1cc(Cl)c(C)cc1S(=O)(=O)Nc1nc2ccccc2o1"
Data returned: inactive

Data request: For "CC(=O)c1c(C)[nH]c(-c2nc3ccc(N4CCN(C)CC4)cc3[nH]2)c1-c1ccc(N(C)C)cc1" then?
Data returned: inactive

Data request: And then C[C@@]12CCC[C@@](C)(C(=O)O)C1CC[C@]13C[C@@](O)(CO)[C@](O)(CCC12)C3 (some centres undefined) , what is it?
Data returned: inactive

###

# Test system: NCI-H460 lung
# run.description: NCI tumour cell line growth inhibition, 48 h
experimental.endpoint: TGI

Data request: Please give the measured TGI for this molecule: "S=C(Nc1ccc(-c2nc3ccccc3[nH]2)cc1)Nc1ccc(-c2nc3ccccc3[nH]2)cc1"
Data returned: > 100 µM

Data request: // next record "COc1ccccc1-c1cc(=O)c2cc3c(cc2[nH]1)OCO3"
Data returned: > 100 µM

Data request: Input C[C@]12CC/C(=N\O)C=C1CC[C@@H]1C2CC[C@@]2(C)C1CC[C@@H]2OC1CCCCO1 (stereo not given in full)
Data returned: 45.7 µM

Data request: Next: "NCCCCCCCn1c2c(c3ccccc3c1=O)C(=O)c1ccccc1-2"
Data returned: 2.59 µM

Data request: Then this molecule: "CN(C)CCn1c(=O)c2ccc(NCCN3CCNCC3)c3c(=O)c4ccccc4n(c1=O)c23"
Data returned: 12 µM

Data request: Further, for CCOC(=O)N1CCC(=O)C(CNC23CC4CC(CC(C4)C2)C3)C1 (stereo not given) ?
Data returned: > 100 µM

Data request: Field entry: COC(=O)C(C(=O)OC)C1CCCC(=O)C1 (stereo not given)
Data returned: > 100 µM

Data request: Do the same for O=C(c1ccccc1)C1OC12C(=O)Nc1c(Cl)cc(Cl)cc12 (stereo not given) please
Data returned: > 100 µM

Data request: Thanks! And "O=c1c(Br)cc2nc3ccccc3sc-2c1Br" ?
Data returned: > 100 µM

Data request: Try this molecule too: "Cc1cccc2c1c(=O)c1c(O)c3c(cc1n2C)OC(C)(C)C=C3"
Data returned: > 10 µM

###

# Test system: TK-10 renal
# run.description: NCI tumour cell line growth inhibition, 48 h; in the data active means GI50 below about 0.43 µM; inactive means the rest
Your answer must be one of the following: active, inactive

Data request: Query: recorded result category for C[As](C)SCC(COC(=O)C(Cl)c1ccccc1)OC(=O)C(Cl)c1ccccc1 (configuration not stated) in this test
Data returned: active

Data request: Continue with "Cc1csc(/C=C/C(=O)c2nnn(-c3ccnc4c(C(F)(F)F)cccc34)c2C)c1"
Data returned: inactive

Data request: // same read-out, input: "S=C(Nc1ccc(-c2nc3ccccc3[nH]2)cc1)Nc1ccc(-c2nc3ccccc3[nH]2)cc1"
Data returned: inactive

Data request: Thanks! And "CCOC(=O)c1cc2c(cc1Cl)SC(N(c1ccc(OC)cc1)S(=O)(=O)c1ccc(Cl)cc1)=NS2(=O)=O" ?
Data returned: inactive

Data request: Entry to check: "C#Cc1c(/C=C/C(=O)OCC)ccc2ccccc12"
Data returned: inactive

Data request: One more molecule: "O=C(NCCCO)c1cc(Cl)ccc1O"
Data returned: inactive

Data request: Repeat with "Cc1cc(N2CCOCC2)nc(N[C@@H]2CCC[C@H](Nc3ccnc4cc(Cl)ccc34)C2)n1"
Data returned: inactive

Data request: Please answer likewise for "Fc1ccc2c(c1)c(-c1nc(-c3c[nH]c4ncccc34)cs1)cn2CCCCN1CCCCC1"
Data returned: inactive

Data request: How about this molecule: "Oc1ccc(-c2nc3ccccc3s2)cc1CN(Cc1ccccn1)Cc1ccccn1"
Data returned: inactive

Data request: Entry "O=C(Nc1ccncc1)C(=O)c1cn(S(=O)(=O)c2ccc(Cl)cc2)c2ccccc12" please
Data returned: inactive

Data request: Here is the next molecule: CCC[CH2][Sn]1([CH2]CCC)[O]CC(CN(C)Cc2ccccc2)[O]1 (configuration not stated)
Data returned: inactive

Data request: Another: "Cc1nnc(-c2cccc(-c3ccc(C(=O)NCC4CC4)cc3)c2)o1"
Data returned: inactive

Data request: Another molecule: "Cc1nc2ccccc2c(/C=C/c2ccc(Cl)cc2)c1C(=O)/C=C/c1ccc(C(F)(F)F)cc1"
Data returned: inactive

Data request: Next: CCN(CC)CC(O)CNc1c2ccc([N+](=O)[O-])cc2nc2cc(OC)c(OC)cc12 (configuration not stated)
Data returned: inactive

Data request: Then what about the molecule "CC(=O)c1c(C)[nH]c(-c2nc3ccc(N4CCN(C)CC4)cc3[nH]2)c1-c1ccc(N(C)C)cc1" ?
Data returned: active

Data request: Input "COc1cc(C(=O)N2CCN(c3ncnc4ccccc34)CC2)c(N)cc1OCc1ccccc1"
Data returned: inactive

Data request: Note, next up: "CCN(CC)CCCNCc1cc(-c2ccccc2)nc2ccccc12"
Data returned: inactive

Data request: Next molecule up: "CC(=O)OC(C)(C)/C(C)=C/C(=O)O[C@H]1C(=O)O[C@@H]2C[C@H]3[C@H](C)C(=O)C(O[C@@H]4O[C@H](CO)[C@@H](O)[C@H](O)[C@H]4O)=C[C@]3(C)[C@H]3[C@@H](O)[C@H](O)[C@@]4(C(=O)O)OC[C@]32[C@@H]14"
Data returned: inactive

Data request: Quick one: "COCc1cc(C(=O)Nc2cc([C@H]3CC[C@@H](OC(=O)NC(C)C)C3)[nH]n2)n(C)n1"
Data returned: inactive

Data request: What do you have for "COc1ccc2c(=O)cc(C(Cl)(Cl)Cl)oc2c1" ?
Data returned: inactive

Data request: Same lookup for "c1ccc(CN2COc3c(ccc4c3OCN(Cc3ccccc3)C4)C2)cc1" , please.
Data returned: inactive

Data request: Now try "O=c1cc(-c2cccc3c2Sc2ccccc2S3)oc(N2CCOCC2)c1" .
Data returned: inactive
